MIC: recorded values
# System: Pseudomonas aeruginosa
# Procedure summary: Antimicrobial activity against tetracycline-susceptible Pseudomonas aeruginosa isolate 111 by CLSI dilution method
# Format: functional
Measure name: MIC

> print(dat)
                                 item.smiles         target.of.assay    observed
 1  CN(C)[C@@H]1C(O)=C(C(N)=O)C(=O)[C@@]2(O)C(O)=C3C(=O)c4c(cc5ccc(CN6CC(F)(F)C6)cc5c4O)C[C@H]3C[C@@H]12  Pseudomonas aeruginosa  > 32 µg/mL
 2  CN(C)[C@@H]1C(O)=C(C(N)=O)C(=O)[C@@]2(O)C(O)=C3C(=O)c4c(cc5c(N)cccc5c4O)C[C@H]3C[C@@H]12  Pseudomonas aeruginosa  > 32 µg/mL
 3  CN(C)c1ccc(-c2ccc3cc4c(c(O)c3c2)C(=O)C2=C(O)[C@]3(O)C(=O)C(C(N)=O)=C(O)[C@@H](N(C)C)[C@@H]3C[C@@H]2C4)cc1  Pseudomonas aeruginosa  > 32 µg/mL
 4  CN(C)c1c2c(c(O)c3cc(F)ccc13)C(=O)C1=C(O)[C@]3(O)C(=O)C(C(N)=O)=C(O)[C@@H](N(C)C)[C@@H]3C[C@@H]1C2  Pseudomonas aeruginosa  > 32 µg/mL
 5  CCN(C)Cc1ccc2cc3c(c(O)c2c1)C(=O)C1=C(O)[C@]2(O)C(=O)C(C(N)=O)=C(O)[C@@H](N(C)C)[C@@H]2C[C@@H]1C3  Pseudomonas aeruginosa  > 32 µg/mL
 6  CN(C)[C@@H]1C(O)=C(C(N)=O)C(=O)[C@@]2(O)C(O)=C3C(=O)c4c(cc5ccc(CN6CC(C#N)C6)cc5c4O)C[C@H]3C[C@@H]12  Pseudomonas aeruginosa  > 32 µg/mL
 7  CN(C)[C@@H]1C(O)=C(C(N)=O)C(=O)[C@@]2(O)C(O)=C3C(=O)c4c(cc5ccc(F)cc5c4O)C[C@H]3C[C@@H]12  Pseudomonas aeruginosa  > 32 µg/mL
 8  CC(C)Oc1c2c(c(O)c3cc(CN4CCC4)ccc13)C(=O)C1=C(O)[C@]3(O)C(=O)C(C(N)=O)=C(O)[C@@H](N(C)C)[C@@H]3C[C@@H]1C2  Pseudomonas aeruginosa  > 32 µg/mL
 9  CNc1cccc2c(O)c3c(cc12)C[C@H]1C[C@H]2[C@H](N(C)C)C(O)=C(C(N)=O)C(=O)[C@@]2(O)C(O)=C1C3=O  Pseudomonas aeruginosa  > 32 µg/mL
10  COc1c2c(c(O)c3cc(CNC(C)(C)C)ccc13)C(=O)C1=C(O)[C@]3(O)C(=O)C(C(N)=O)=C(O)[C@@H](N(C)C)[C@@H]3C[C@@H]1C2  Pseudomonas aeruginosa    16 µg/mL
11  COCCOc1c2c(c(O)c3cc(CN4CCC4)ccc13)C(=O)C1=C(O)[C@]3(O)C(=O)C(C(N)=O)=C(O)[C@@H](N(C)C)[C@@H]3C[C@@H]1C2  Pseudomonas aeruginosa  > 32 µg/mL
12  COc1c2c(c(O)c3cc(CN4CCC4)ccc13)C(=O)C1=C(O)[C@]3(O)C(=O)C(C(N)=O)=C(O)[C@@H](N(C)C)[C@@H]3C[C@@H]1C2  Pseudomonas aeruginosa    32 µg/mL
